ASSAY NOTES: Compound cytotoxicity, XTT-based colorimetric assay
Assay type: cell-based
PARTICULARS: human; uninfected MT2 cells, day 4, XTT assay
Known CC50 at 4 day of a selection of compounds

COMPOUND	CC50 at 4 day
Cn1nc(NS(C)(=O)=O)c2c(Cl)ccc(-n3c([C@H](Cc4cc(F)cc(F)c4)NC(=O)Cn4nc(C(F)F)c5c4C(F)(F)[C@@H]4C[C@H]54)nc4nc(-c5ncc(Cl)nc5Cl)ccc4c3=O)c21 (atropisomer, axis not shown; (P))	> 100 nM
Cn1nc(NS(C)(=O)=O)c2c(Cl)ccc(-n3c([C@H](Cc4cc(F)cc(F)c4)NC(=O)Cn4nc(C(F)F)c5c4C(F)(F)[C@@H]4C[C@H]54)nc4nc(-c5csc(C(C)(C)O)n5)ccc4c3=O)c21 (atropisomer, axis not shown; (P))	> 100 nM

Summary for this compound, Cn1nc(NS(C)(=O)=O)c2c(Cl)ccc(-n3c([C@H](Cc4cc(F)cc(F)c4)NC(=O)Cn4nc(C(F)F)c5c4C(F)(F)[C@@H]4C[C@H]54)nc4nc(-c5ccc6scnc6c5)ccc4c3=O)c21 (atropisomer, axis not shown; (P)) : CC50 at 4 day is > 100 nM

Summary for this compound, Cn1nc(NS(C)(=O)=O)c2c(Cl)ccc(-n3c([C@H](Cc4cc(F)cc(F)c4)NC(=O)Cn4nc(C(F)F)c5c4C(F)(F)[C@@H]4C[C@H]54)nc4nc(-c5ccc(OC(F)F)cc5)ccc4c3=O)c21 (atropisomer, axis not shown; (P)) : CC50 at 4 day is > 100 nM

----------
ASSAY NOTES: Compound cytotoxicity, XTT-based colorimetric assay
Assay type: cell-based
PARTICULARS: human; uninfected MT2 cells, day 4, XTT assay
MEASURED ENDPOINT: CC50 at 4 day

COMPOUND	CC50 at 4 day
Cn1nc(NS(C)(=O)=O)c2c(Cl)ccc(-n3c([C@H](Cc4cc(F)cc(F)c4)NC(=O)Cn4nc(C(F)F)c5c4C(F)(F)[C@@H]4C[C@H]54)nc4nc(-c5cc(C(F)F)ccn5)ccc4c3=O)c21 (atropisomer, axis not shown; (P))	> 100 nM

// below: CC50 at 4 day requested for another compound
Summary for this compound, Cn1nccc1-c1ccc2c(=O)n(-c3ccc(Cl)c4c(NS(C)(=O)=O)nn(C)c34)c([C@H](Cc3cc(F)cc(F)c3)NC(=O)Cn3nc(C(F)F)c4c3C(F)(F)[C@@H]3C[C@H]43)nc2n1 (atropisomer, axis not shown; (P)) : CC50 at 4 day is > 100 nM
